B1: Gamma-crystallin S, residues 96 to 176; numbered along this chain, P22914 (parent)
chain: IQIFEKGDFSGQMYETTEDCPSIMEQFHMREIHSCKVLEGVWIFYELPNYRGRQYLLDKKEYRKPIDWGAASPAVQSFRRI

Variants of: B1
Assay: abundance fitness (aPCA) (normalised: wild type 0, dead -1); higher = more abundant; growth selection in yeast, the domain comes from the species named
Conditions: Homo sapiens
quantityMeasured: abundance fitness
Please reply with the number alone, leaving off any unit.

Some variants with known abundance fitness results, for comparison:
* E18Q | 0.009
* A70K | 0.169

Qu. // returns reported abundance fitness for input `Y62V`
Ans. -0.184

Qu. Tell me the measured abundance fitness of `F27H` , please.
Ans. 0.101

Origin of values: the Human Domainome abundance scans (Beltran et al. 2025)
